- Test system: B1R receptor of the rat (Rattus norvegicus, UniProt P97583)
- Construct: host or cells: CHO K1 cells (Chinese hamster ovary), stably transfected
- Sequence (P97583 whole entry): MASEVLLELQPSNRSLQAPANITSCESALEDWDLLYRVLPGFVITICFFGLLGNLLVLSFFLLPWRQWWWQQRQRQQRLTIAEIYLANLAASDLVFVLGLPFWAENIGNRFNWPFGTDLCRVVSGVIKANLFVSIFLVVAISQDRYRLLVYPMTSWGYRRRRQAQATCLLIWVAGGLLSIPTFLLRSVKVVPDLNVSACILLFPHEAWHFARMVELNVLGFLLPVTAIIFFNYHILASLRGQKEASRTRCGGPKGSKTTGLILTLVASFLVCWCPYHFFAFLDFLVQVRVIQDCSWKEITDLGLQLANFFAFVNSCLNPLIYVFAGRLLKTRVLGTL
- Method notes: Functional study on the bradykinin receptor 1 (B1R), FLIPR Ca2+ assay, rB1R cells
- Format: cell-based
- Test settings: CHO-K1, test substance 10 μM, agonist Des-Arg9-bradykinin 100 nM, % inhibition compared with the maximum achievable inhibition, read-out: B1R Antagonism, rat [10 μM] % Inhibition
Parameter: inhibition at 10 µM. Scope: all listed entries.

| Molecule | inhibition at 10 µM, % |
| --- | --- |
| COc1cc(C)c(S(=O)(=O)N2CCCC2COCC(=O)N(Cc2ccccc2)c2cccc(C)n2)c(C)c1 (stereo not shown) | 102 |
| CN1CCC(N2CCN(C(=O)COCC3CCCN3S(=O)(=O)c3c(Cl)cc(C(F)(F)F)cc3Cl)CC2)CC1 (stereo not shown) | 98.1 |
| CN1CCC(N2CCN(C(=O)COCC3CCCN3S(=O)(=O)c3c(Cl)cccc3Cl)CC2)CC1 (stereo not shown) | 102 |
| O=C(COCC1CCCCN1S(=O)(=O)c1c(Cl)cccc1Cl)N1CCN(CCO)CC1 (stereo not shown) | 101 |
| COc1cc(OC)cc(N2CCN(C(=O)COCC3CCCCN3S(=O)(=O)c3c(Cl)cc(Cl)cc3Cl)CC2)c1 (stereo not shown) | 101 |
| Cc1ccc2[nH]c(C3CCN(C(=O)COCC4CCCCN4S(=O)(=O)c4c(Cl)cccc4Cl)CC3)nc2c1 (stereo not shown) | 99.1 |
| O=C(COCC1Cc2ccccc2CN1S(=O)(=O)c1ccc(Cl)cc1Cl)Nc1cccc(N2CCOCC2)c1 (stereo not shown) | 51.3 |

* * *

- Test system: human B1R receptor (Homo sapiens)
- Construct: host or cells: CHO K1 cells (Chinese hamster ovary), stably transfected
- Method notes: Functional study on the bradykinin receptor 1 (B1R), FLIPR Ca2+ assay, hB1R cells
- Type: cell-based
- Test settings: CHO-K1, test substance 10 μM, agonist Lys-Des-Arg9-bradykinin 0.5 nM, % inhibition compared with the maximum achievable inhibition, read-out: B1R Antagonism, human [10 μM] % Inhibition

| Compound | Test system | inhibition at 10 µM |
| --- | --- | --- |
| COc1cc(C)c(S(=O)(=O)N2CCCCC2COCC(=O)NCCC2CCN(c3ccncc3)CC2)c(C)c1 (stereo not shown) [Example 143] | human B1R receptor (Homo sapiens) | 99.9% |
| COc1cc(C)c(S(=O)(=O)N2Cc3ccccc3CC2COCC(=O)N2CCN(CC3CCN(C)CC3)CC2)c(C)c1C (stereo not shown) [Example 563] | human B1R receptor (Homo sapiens) | 102% |
| Cc1cc(C)c(S(=O)(=O)N2CCCCC2COCC(=O)N2CCC(N3CCCCC3)CC2)c(C)c1 (stereo not shown) [Example 225] | human B1R receptor (Homo sapiens) | 104% |
| Cc1ccc(N2CCN(C(=O)COCC3CCCN3S(=O)(=O)c3c(Cl)cccc3Cl)CC2)cc1C (stereo not shown) [Example 355] | human B1R receptor (Homo sapiens) | 83.4% |

* * *

- Test system: human B1R receptor (Homo sapiens)
- Construct: host or cells: CHO K1 cells (Chinese hamster ovary), stably transfected
- Sequence (P46663 1-353): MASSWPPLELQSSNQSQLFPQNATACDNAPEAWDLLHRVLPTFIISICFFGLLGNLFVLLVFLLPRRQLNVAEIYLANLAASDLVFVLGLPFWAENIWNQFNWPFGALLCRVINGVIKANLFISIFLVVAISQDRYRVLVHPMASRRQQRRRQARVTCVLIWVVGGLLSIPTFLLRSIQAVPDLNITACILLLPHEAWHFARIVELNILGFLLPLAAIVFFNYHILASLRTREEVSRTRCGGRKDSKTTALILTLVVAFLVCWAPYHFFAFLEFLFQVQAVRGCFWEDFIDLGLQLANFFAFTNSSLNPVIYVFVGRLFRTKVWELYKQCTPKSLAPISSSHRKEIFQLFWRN
- Method notes: Functional study on the bradykinin receptor 1 (B1R), FLIPR Ca2+ assay, hB1R cells
- Type: cell-based
- Test settings: CHO-K1, test substance 10 μM, agonist Lys-Des-Arg9-bradykinin 0.5 nM, % inhibition compared with the maximum achievable inhibition, read-out: B1R Antagonism, human [10 μM] % Inhibition
Structures can show the parent of a compound that is named as a salt.
Classify as follows. Reported inhibition at 10 µM greater than or equal to 80%: Y. Reported inhibition at 10 µM below: N.

| Compound | Class assignment |
| --- | --- |
| Cc1ccc(N2CCN(C(=O)COCC3CCCCN3S(=O)(=O)c3c(Cl)cccc3Cl)CC2)cc1C (centres unmarked) [Example 403] | Y |
| COc1cc(C)c(S(=O)(=O)N2CCCCC2COCC(=O)NCc2ccccc2N2CCOCC2)c(C)c1 (centres unmarked) [Example 435] | N |
| COc1cc(C)c(S(=O)(=O)N2CCCC2COCC(=O)N2CCN(Cc3c(C)cc(C)cc3C)CC2)c(C)c1 (centres unmarked) [Example 351] | N |
| COc1cc(C)c(S(=O)(=O)N2CCCC2COCC(=O)NCc2ccc(N3CCN(C)CC3)cc2)c(C)c1 (centres unmarked) [Example 18] | Y |
| COc1cccc(N2CCN(C(=O)COCC3CCCN3S(=O)(=O)c3c(Cl)cccc3Cl)CC2)c1 (centres unmarked) [Example 324] | Y |
| COc1ccc(S(=O)(=O)N2Cc3ccccc3C[C@H]2COCC(=O)N2CCC(CCN3CCCC3)CC2)cc1 [Example 182] | Y |
| CC(C)N(CCN1CCN(C(=O)COCC2CCCCN2S(=O)(=O)c2c(Cl)cc(Cl)cc2Cl)CC1)C(C)C (centres unmarked) [Example 254] | Y |
| O=C(COCC1CCCCN1S(=O)(=O)c1ccc(Cl)c(Cl)c1)NCC1CCCN(Cc2ccccc2)C1 (centres unmarked) [Example 70] | N |
| Cc1ccc2ccccc2c1S(=O)(=O)N1CCCCC1COCC(=O)N1CCN(C2CCN(C)CC2)CC1 (centres unmarked) [Example 157, dihydrochloride] | Y |
| O=C(COCC1CCCN1S(=O)(=O)c1c(Cl)cc(Cl)cc1Cl)NCc1ccc(N2CCOCC2)cc1 (centres unmarked) [Example 580] | N |
| O=C(COCC1CCCCN1S(=O)(=O)c1c(Cl)cccc1Cl)N1CCCC1Cc1ccccn1 (centres unmarked) [Example 456] | Y |
| COc1cc(C)c(S(=O)(=O)N2CCCC2COCC(=O)Nc2ccc3c(c2)ncn3C)c(C)c1 (centres unmarked) [Example 494] | N |
| CN(C(=O)COCC1CCCCN1S(=O)(=O)c1c(Cl)cc(Cl)cc1Cl)C(CN1CCCC1)c1ccccc1 (centres unmarked) [Example 392] | Y |
| COc1cc(C)c(S(=O)(=O)N2CCCCC2COCC(=O)N(C)CCC2CCC(N3CCCC3)CC2)c(C)c1 (centres unmarked) [Example 194] | Y |

* * *

- Test system: human B1R receptor (Homo sapiens, UniProt P46663)
- Construct: host or cells: CHO K1 cells (Chinese hamster ovary), stably transfected
- Sequence (P46663 1-353): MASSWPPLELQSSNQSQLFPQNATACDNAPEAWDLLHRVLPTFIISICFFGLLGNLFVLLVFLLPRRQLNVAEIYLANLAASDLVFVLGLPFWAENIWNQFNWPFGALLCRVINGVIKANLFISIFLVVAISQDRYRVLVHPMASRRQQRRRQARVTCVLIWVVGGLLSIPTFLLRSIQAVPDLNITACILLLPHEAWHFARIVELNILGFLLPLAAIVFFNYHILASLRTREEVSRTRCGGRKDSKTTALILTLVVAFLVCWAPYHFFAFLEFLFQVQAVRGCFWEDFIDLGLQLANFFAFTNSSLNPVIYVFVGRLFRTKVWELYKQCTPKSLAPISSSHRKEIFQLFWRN
- Method notes: Functional study on the bradykinin receptor 1 (B1R), FLIPR Ca2+ assay, hB1R cells
- Type: cell-based
- Test settings: CHO-K1, test substance 10 μM, agonist Lys-Des-Arg9-bradykinin 0.5 nM, % inhibition compared with the maximum achievable inhibition, read-out: B1R Antagonism, human [10 μM] % Inhibition
Property measured: inhibition at 10 µM (%)

| Compound | Test system | Property measured | Numeric result |
| --- | --- | --- | --- |
| COc1cc(C)c(S(=O)(=O)N2CCCC2COCC(=O)N2CCC(c3ccncc3)C2)c(C)c1 (stereo not shown) | human B1R receptor (Homo sapiens, UniProt P46663) | inhibition at 10 µM | 96 |
| COc1cc(C)c(S(=O)(=O)N2CCCCC2COCC(=O)NC(C)Cn2cccn2)c(C)c1 (stereo not shown) | human B1R receptor (Homo sapiens, UniProt P46663) | inhibition at 10 µM | -4.95 |
| COc1cc(C)c(S(=O)(=O)N2CCCCC2COCC(=O)N2CCN(Cc3cnn(C)c3C)CC2)c(C)c1 (stereo not shown) | human B1R receptor (Homo sapiens, UniProt P46663) | inhibition at 10 µM | 105 |
| O=C(COCC1CCCN1S(=O)(=O)c1ccc(Cl)c(Cl)c1)N1CCN(CC2CCCCC2)CC1 (stereo not shown) | human B1R receptor (Homo sapiens, UniProt P46663) | inhibition at 10 µM | 63.8 |

Where do the numbers come from? From patent US8435978B2.
